experiment-notes: Comparative bioavailability of bortezomib and boronic ester of Formula XI in rat, Example 10 (i.v.; p.o. in saline)
Assay type: in vivo, male Sprague Dawley rats
experimental-conditions: male, Sprague Dawley, iv, bortezomib in plasma, 0.8 mg/kg, mean ± SEM, n = 3
endpoint: Vd
Dear colleague, please send the value followed by its unit.

For the molecule shown here, CC(C)C[C@H](NC(=O)[C@H](Cc1ccccc1)NC(=O)c1cnccn1)B(O)O , give the reported Vd.
2.4 L/kg

----------
experiment-notes: Comparative bioavailability of bortezomib and boronic ester of Formula XI in rat, Example 10 (i.v.; p.o. in saline)
Format: in vivo, male Sprague Dawley rats
experimental-conditions: male, Sprague Dawley, iv, bortezomib in plasma, 0.8 mg/kg, mean ± SEM, n = 3, read-out: t1/2, h (converted)
endpoint: half-life (min)
API: value field is a number in min; no unit string.

For the molecule shown here, CC(C)C[C@H](NC(=O)[C@H](Cc1ccccc1)NC(=O)c1cnccn1)B(O)O , give the reported half-life.
48
